Values from PubChem BioAssay

Test system: PRMT1 (protein arginine N-methyltransferase 1)
Assay: PRMT1 binders on small-molecule microarrays, primary screen, biochemical, small-molecule microarray, 635 nm fluorescence (AID 1088);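 note: binding of Prmt1 protein to compounds spotted on small-molecule microarray slides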
Conditions: small-molecule microarray binding, higher = more signal
readout: composite z-score

[[record]]
compound = "C=C(C)[C@@H]1CC=C(C(O)C2C=CC3C(=O)NC(=O)C3N2Nc2ccccn2)CC1 (stereo partly specified)"
experimental_value = 1.55

[[record]]
compound = "NC(=O)NCC#Cc1ccc2c(c1)[C@]1(C(=O)N2)[C@H](c2ccccc2OCCO)N2[C@H](c3ccccc3)[C@H](c3ccccc3)OC(=O)[C@H]2[C@@H]1C(=O)N1CCN(c2ncccn2)CC1"
experimental_value = 1.54

[[record]]
compound = "C[N+](C)(C)CCCCNC(=O)[C@@H]1C[C@@H]2C(=O)N3CCC[C@H]3C(=O)N2[C@@H]1c1cccc(OCCO)c1"
experimental_value = 0.869

[[record]]
compound = "Cc1ccc(S[C@]2(C(=O)O)CC(=O)N(Cc3cc(C(F)(F)F)cc(C(F)(F)F)c3)[C@@H]2c2ccc(CO)cc2I)cc1"
experimental_value = 1.33

[[record]]
compound = "O=C1NC(=O)C2C1C=CC(C(O)C=Cc1ccc([N+](=O)[O-])cc1)N2Nc1ccccn1 (stereo unspecified)"
experimental_value = 0.403

[[record]]
compound = "Cc1ccc(S(=O)(=O)N2[C@@H](c3ccccc3)C(C(=O)O)=CC[C@H]2c2ccccc2)cc1"
experimental_value = -0.116

[[record]]
compound = "C=C(CCCC)C(=O)CC[C@@H](OC(C)=O)c1ccccc1OCCO"
experimental_value = 0.0077

[[record]]
compound = "COC(=O)C1=CC(c2ccc(CO)cc2)=CC(C2CC2)N(Cc2sc3ccccc3c2Cl)C=C1C(=O)OC (stereo unspecified)"
experimental_value = 1.55

[[record]]
compound = "CO[C@H]1O[C@H](CO)[C@@H](OC(=O)Nc2ccc3c(c2)OCO3)[C@H](OC(=O)Nc2ccccc2)[C@@H]1OC(=O)Nc1ccccc1"
experimental_value = 1.55

[[record]]
compound = "O=C1C[C@@](C(=O)NC2CC2)(c2ccc([N+](=O)[O-])cc2)[C@@H](c2ccc(CO)cc2I)N1CC12CC3CC(CC(C3)C1)C2"
experimental_value = 1.48

[[record]]
compound = "CC(=O)NCCCC[C@@H]1NC(=O)[C@@H]2C[C@H](C(=O)NCc3ccc(F)cc3)[C@H](c3cccc(OCCO)c3)N2C1=O"
experimental_value = 0.631


----------
Here, each record is paired with measured composite z-score data.
Experiment: binders of probe aFST on microarray, primary screen, stem cell growth factor project, biochemical, small-molecule microarray, fluorescence 635/667 (AID 1086);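 note: score merges 667 nm fluorescence with signal-to-noise of each printed compound spot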
Details: higher = more signal
readout: composite z-score

[[record]]
molecule = "O=C1C2C=CC(C(O)c3ccccc3)N(n3cnnc3)C2C(=O)N1Cc1ccccc1 (stereo not given)"
experimental_value = 0.364

[[record]]
molecule = "COCCCNC(=O)[C@@]1(Sc2ccc(C)cc2)CC(=O)N(Cc2cc(C(F)(F)F)cc(C(F)(F)F)c2)[C@@H]1c1ccc(CO)cc1I"
experimental_value = -0.265

[[record]]
molecule = "COc1ccc([Si](C)(C)[C@@H]2[C@@H](CCO)O[C@]3(C(=O)N(Cc4ccc(NC(=O)[C@H](C)O)cc4)c4ccccc43)[C@H]2C)cc1"
experimental_value = 0.152

[[record]]
molecule = "O=C1C2C=CC(C(O)C(c3ccccc3)c3ccccc3)N(Nc3ccc([N+](=O)[O-])cc3)C2C(=O)N1c1ccccc1 (stereo not given)"
experimental_value = 1.37

[[record]]
molecule = "CN1C(=O)C2C=CC(C(O)C3CC=CCC3)N(Nc3ccccc3)C2C1=O (stereo not given)"
experimental_value = 0.733

[[record]]
molecule = "C=CCN1C(=O)[C@]2(O[C@H](CCn3cc(CCO)nn3)[C@@H]([Si](C)(C)c3ccc(OC)cc3)[C@@H]2C)c2cc(NC(=O)c3ccc(OC)cc3)ccc21"
experimental_value = 0.479

[[record]]
molecule = "COCCOC(=O)N1C(=O)[C@@]2(c3cc(C#CCCO)ccc31)[C@H](c1ccc(OCCO)cc1)N1[C@H](c3ccccc3)[C@H](c3ccccc3)OC(=O)[C@H]1[C@@H]2C(=O)NC[C@H](O)c1ccccc1"
experimental_value = 0.788

[[record]]
molecule = "CC(=O)NCCCC[C@@H]1NC(=O)[C@@H]2C[C@H](C(=O)NCCCCCCN(C)C)[C@H](c3ccc(O)cc3)N2C1=O"
experimental_value = 0.541

[[record]]
molecule = "CN(C)CCCC[C@@H]1NC(=O)[C@@H]2C[C@H](C(=O)NCCCCCNC(=O)CS)[C@H](c3ccc(O)cc3)N2C1=O"
experimental_value = -0.0694

[[record]]
molecule = "Cc1ccc(S[C@]2(C(=O)NC(C)C)CC(=O)N(Cc3cc(C(F)(F)F)cc(C(F)(F)F)c3)[C@@H]2c2ccc(CO)cc2I)cc1"
experimental_value = -0.666

[[record]]
molecule = "CCCNC(=O)[C@@]1(Sc2ccc(C)cc2)CC(=O)N(Cc2ccccc2Cl)[C@@H]1c1ccc(CO)cc1"
experimental_value = 0.427

[[record]]
molecule = "CN1C2C=C(c3ccc(CO)cc3)C(C3C(=O)N(C(N)=O)C(=O)C32)C1c1cccs1 (stereo not given)"
experimental_value = -0.221

[[record]]
molecule = "O=C(NCc1ccccc1)[C@@]1(CCS(=O)(=O)c2ccccc2)COC(c2ccc(OCCCO)cc2)=N1"
experimental_value = 0.662

[[record]]
molecule = "Cc1ccc(N2C(=O)c3ccccc3[C@@H](C(=O)NCC(F)(F)F)[C@@H]2c2ccc(CO)cc2)nc1"
experimental_value = -0.869

[[record]]
molecule = "N#Cc1ccc(NN2C(C(O)CCc3ccccc3)C=CC3C(=O)N(c4ccccc4)C(=O)C32)cc1 (stereo not given)"
experimental_value = 1.02


----------
Biological target: Homeobox protein Hox-A13 (Mus musculus)
Assay: inhibitors of HoxA13-DNA binding, primary screen, biochemical, fluorescence polarization, labeled oligonucleotide (AID 1185)
Conditions: 15 min, higher = more signal, called active from +8 up or from −8 down
readout: z-score

[[record]]
line_notation = "O=C1O[C@H](c2ccccc2)[C@H](c2ccccc2)N2[C@H]1[C@@H](C(=O)NC[C@H](O)c1ccccc1)[C@]1(C(=O)Nc3ccc(C#CC4(O)CCCCCC4)cc31)[C@H]2c1ccc(OCCO)cc1"
experimental_value = 0.199

[[record]]
line_notation = "CO[C@@H]1COC(=O)[C@@H]2CCCN2C(=O)CC=C[C@@H](C)[C@H](OC)COC(=O)[C@@H]2CCCN2C(=O)CC=C[C@H]1C"
experimental_value = -0.507

[[record]]
line_notation = "C=CC[C@]1(C(=O)O)N=C(c2ccc(OCCCO)cc2)O[C@H]1c1ccccc1"
experimental_value = -4.1


----------
Test system: Sam68 (KHDRBS1)
Test: Sam68 small-molecule binders, primary screen, biochemical, small-molecule microarray, 635 nm fluorescence (AID 1125);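 note: score merges 667 nm channel intensity with signal to noise over triplicate slides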
Settings: small-molecule microarray binding, higher = more signal
readout: composite z-score

[[record]]
molecule = "CC[C@H]1C2=C3C(CC[C@H]4C(OC)OC[C@](C)([C@@H]34)N(C(=O)OC(C)(C)C)C2)C(CO)C1CO (some centres undefined)"
experimental_value = 1.29

[[record]]
molecule = "COC(=O)c1ccc(C#CC(NP(=O)(c2ccccc2)c2ccccc2)c2ccccc2)cc1 (centres undefined)"
experimental_value = 1.08

[[record]]
molecule = "O=C(NCc1ccccc1)[C@@]1(Cc2ccccc2)COC(c2ccc(OCCCO)cc2)=N1"
experimental_value = 0.682

[[record]]
molecule = "[N-]=[N+]=NCc1ccccc1C[C@@]1(C(=O)O)N=C(c2ccc(OCCCO)cc2)O[C@@H]1c1ccccc1N=[N+]=[N-]"
experimental_value = 1.3


----------
System: Sonic hedgehog protein (Shh)
Assay: small-molecule binders of Shh protein, primary screen, biochemical, small-molecule microarray, 635/667 nm fluorescence (AID 1151);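 note: Shh protein binding to compounds spotted on small-molecule microarray slides; score combines spot fluorescence intensity with signal-to-noise across triplicate slides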
Details: small-molecule microarray binding, 635 nm fluorescence; higher = more signal
readout: composite z-score

[[record]]
compound = "C=CCOC(=O)[C@@H]1[C@H]2C(=O)O[C@H](c3ccccc3)[C@H](c3ccccc3)N2[C@H](c2ccc(OCCOC(=O)[C@H]3C[C@H]4C(=O)N5CCC[C@H]5C(=O)N4[C@H]3c3ccc(O)cc3)cc2)[C@@]12C(=O)Nc1ccccc12"
experimental_value = 1.68

[[record]]
compound = "COc1ccc([Si](C)(C)[C@@H]2[C@@H](CCO)O[C@]3(C(=O)N(Cc4ccc(NC(=O)[C@H](C)O)cc4)c4ccccc43)[C@H]2C)cc1"
experimental_value = 0.599

[[record]]
compound = "CO[C@@H]1COC(=O)CC=C[C@@H](C)[C@H](OC)COC(=O)CC=C[C@H]1C"
experimental_value = 1.29

[[record]]
compound = "Cc1cc(C)c(C(O)C2C=CC3C(=O)N(C)C(=O)C3N2N2CCCCC2)c(C)c1 (stereo unspecified)"
experimental_value = 0.375

[[record]]
compound = "C=CCNC(=O)[C@H]1[C@@H]2C(=O)O[C@@H](c3ccccc3)[C@@H](c3ccccc3)N2[C@@H](c2ccccc2OCCO)[C@]12C(=O)N(C(=O)OCCOC)c1ccc(C#CCC(C(=O)OC)C(=O)OC)cc12"
experimental_value = 1.81

[[record]]
compound = "C#C[C@H](O[Si](C#Cc1ccccc1)(C(C)C)C(C)C)c1ccccc1"
experimental_value = -0.154

